Below, each of the compounds is paired with its reported β (Potency/Valency) value.
# target_system: lectin PA-IL (Pseudomonas aeruginosa)
# Construct: made in house; host or cells: Escherichia coli BL21(DE3)
# Sequence (Q05097 2-122): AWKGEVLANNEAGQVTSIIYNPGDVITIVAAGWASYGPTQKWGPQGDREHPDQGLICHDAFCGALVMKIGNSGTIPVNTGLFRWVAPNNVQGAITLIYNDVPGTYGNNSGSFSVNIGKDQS
# test_name: Hemagglutination inhibition assay (HIA) with microscope detection
# Format: biochemical
# condition_description: HIA; standard D-galactose
The answer should be written as a number, with no unit following it.

Previously resolved entries follow.
compound	β (Potency/Valency)
O=C[C@H](O)[C@@H](O)[C@@H](O)[C@H](O)CO [D-galactose, reference compound]	1
OC[C@H]1O[C@@H](OCc2cn(CCOCCOCCOCCn3cc(COCC(COCc4cn(CCOCCOCCOCCn5cc(CO[C@@H]6O[C@H](CO)[C@H](O)[C@H](O)[C@H]6O)nn5)nn4)(COCc4cn(CCOCCOCCOCCn5cc(CO[C@@H]6O[C@H](CO)[C@H](O)[C@H](O)[C@H]6O)nn5)nn4)COCc4cn(CCOCCOCCOCCn5cc(CO[C@@H]6O[C@H](CO)[C@H](O)[C@H](O)[C@H]6O)nn5)nn4)nn3)nn2)[C@H](O)[C@@H](O)[C@H]1O	64
OC[C@H]1O[C@@H](OCc2cn(CCn3cc(COCC(COCc4cn(CCn5cc(CO[C@@H]6O[C@H](CO)[C@H](O)[C@H](O)[C@H]6O)nn5)nn4)(COCc4cn(CCn5cc(CO[C@@H]6O[C@H](CO)[C@H](O)[C@H](O)[C@H]6O)nn5)nn4)COCc4cn(CCn5cc(CO[C@@H]6O[C@H](CO)[C@H](O)[C@H](O)[C@H]6O)nn5)nn4)nn3)nn2)[C@H](O)[C@@H](O)[C@H]1O	32
COC(=O)c1cc(OCc2cn(CCn3cc(CO[C@@H]4O[C@H](CO)[C@H](O)[C@H](O)[C@H]4O)nn3)nn2)c(OCc2cn(CCn3cc(CO[C@@H]4O[C@H](CO)[C@H](O)[C@H](O)[C@H]4O)nn3)nn2)c(OCc2cn(CCn3cc(CO[C@@H]4O[C@H](CO)[C@H](O)[C@H](O)[C@H]4O)nn3)nn2)c1	21.3

We now examine a further compound.
Exercise: Data request, read-out β (Potency/Valency), for COC(=O)c1cc(OCc2cn(CCOCCOCCOCCn3cc(CO[C@@H]4O[C@H](CO)[C@H](O)[C@H](O)[C@H]4O)nn3)nn2)c(OCc2cn(CCOCCOCCOCCn3cc(CO[C@@H]4O[C@H](CO)[C@H](O)[C@H](O)[C@H]4O)nn3)nn2)c(OCc2cn(CCOCCOCCOCCn3cc(CO[C@@H]4O[C@H](CO)[C@H](O)[C@H](O)[C@H]4O)nn3)nn2)c1
Key: 42.7
